# test.protocol: basal S. cerevisiae growth modulation, no modifier, primary screen, OD600, strain BY4716, 24 h, basal condition (AID 1173)
# cond: OD600, 24 h, higher = more signal, called active from +8 up or from −8 down
Use Y when the recorded z-score is no lower than -1; use N when it is lower.

{"compound": "O=C1O[C@@H](c2ccccc2)[C@@H](c2ccccc2)N2[C@@H](c3ccccc3OCCO)[C@]3(C(=O)Nc4ccc(C#CCCO)cc43)[C@@H](C(=O)N3CCN(c4ncccn4)CC3)[C@H]12", "class.label": "Y"}
{"compound": "CN1C(=O)C2C=CC(C(O)c3c(F)cccc3Cl)N(Nc3ccccc3)C2C1=O (stereo not given)", "class.label": "N"}
{"compound": "C=C(C(=O)CC[C@H](OC(=O)c1cccnc1)c1cccc(OCCO)c1)C(C)C", "class.label": "Y"}
{"compound": "COc1ccc(C(O)C2C=CC3C(=O)N(C)C(=O)C3N2N2CCCCC2)cc1 (stereo not given)", "class.label": "Y"}
{"compound": "C=CCN1C(=O)[C@@]2(CCC(=O)OC(C)(C)C)N=C(c3ccc(OCCCO)cc3)O[C@H]2c2ccccc21", "class.label": "N"}

Req: # check: z-score of "COCCOC(=O)N1C(=O)[C@@]2(c3cc(C#CC4=CCCCC4)ccc31)[C@H](c1ccccc1OCCO)N1[C@H](c3ccccc3)[C@H](c3ccccc3)OC(=O)[C@H]1[C@@H]2C(=O)N1CCc2cc(OC)c(OC)cc2C1" is greater than or equal to -1
Resp: Y

Req: # check: z-score of "COc1cc(CO)cc(I)c1O[C@H]1C=C(C(=O)NCCO)C[C@@H](NCc2ccccc2F)[C@@H]1O" is greater than or equal to -1
Resp: N

Req: # check: z-score of CC(C)c1ccc(NN2C(C(O)c3ccco3)C=CC3C(=O)N(c4ccccc4)C(=O)C32)cc1 (stereo not given) is greater than or equal to -1
Resp: N
